system: Eukaryotic translation initiation factor 4E (Homo sapiens)
Sequence (P06730 whole entry): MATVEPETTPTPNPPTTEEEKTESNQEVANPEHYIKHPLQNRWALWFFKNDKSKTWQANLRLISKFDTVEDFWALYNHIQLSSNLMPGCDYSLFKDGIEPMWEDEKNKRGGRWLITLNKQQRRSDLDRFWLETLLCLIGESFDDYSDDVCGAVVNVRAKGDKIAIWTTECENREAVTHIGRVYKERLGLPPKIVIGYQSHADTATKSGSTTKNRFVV
experimentalDetails: Binding affinity to N-terminal 10His-tagged m7GDP-bound recombinant human eIF4E expressed in Escherichia coli BL21 (DE3) cells assessed as dissociation constant at 25 degreeC by surface plasmon resonance analysis
assayEndpoint: Kd
Answer with the figure and its unit, nothing else.

[Q] What value of Kd has been reported for the following substance? Ac-KKRYSREQLLGL-NH2
[A] 0.123 µM
